Measured Activity accompanies every entry in the list below.
ASSAY_OVERVIEW: Cytotoxicity against mouse EAC cells assessed as nonviable cell at 100 ug/mL relative to doxorubicin
Assay type: functional, Ehrlich
Please state the number and follow it with the unit.

Consider the following illustrative entries.
COMPOUND | Activity
COc1cc(N2C(N)=C(C#N)C(c3c(OC)ccc4ccccc34)C3=C2CC(C)(C)CC3=O)cc(OC)c1OC (centres undefined) | 30%
COc1cc(N2C(N)=C(C#N)C(c3ccc(C)cc3)C3=C2CC(C)(C)CC3=O)cc(OC)c1OC (centres undefined) | 90%
COc1cc(N2C(N)=C(C#N)C(c3ccccc3)C3=C2CC(C)(C)CC3=O)cc(OC)c1OC (centres undefined) | 10%
COc1cc(N2C(N)=C(C#N)C(c3ccc(Cl)cc3Cl)C3=C2CC(C)(C)CC3=O)cc(OC)c1OC (centres undefined) | 100%
COc1cc(N2C(N)=C(C#N)C(c3cccc([N+](=O)[O-])c3)C3=C2CC(C)(C)CC3=O)cc(OC)c1OC (centres undefined) | 30%
CCOc1cc(C2C(C#N)=C(N)N(c3cc(OC)c(OC)c(OC)c3)C3=C2C(=O)CC(C)(C)C3)ccc1O (centres undefined) | 45%
COc1cc(C2C(C#N)=C(N)N(c3cc(OC)c(OC)c(OC)c3)C3=C2C(=O)CC(C)(C)C3)ccc1O (centres undefined) | 40%
COc1cc(N2C(N)=C(C#N)C(c3ccc(OC)c(OC)c3OC)C3=C2CC(C)(C)CC3=O)cc(OC)c1OC (centres undefined) | 40%

Shift focus to the following entry.
**Q:** Which measured Activity value corresponds to COc1cc(N2C(N)=C(C#N)C(c3ccccc3Cl)C3=C2CC(C)(C)CC3=O)cc(OC)c1OC (centres undefined) ?
**A:** 20%

----------
ASSAY_OVERVIEW: Cytotoxicity against mouse EAC cells assessed as nonviable cell at 10 ug/mL relative to doxorubicin
Format: functional, Ehrlich
ATTRIBUTE_MEASURED: Activity (%)
// note: answer is a bare numeric in %

MOLECULE | UNIT_DESCRIPTOR | Activity
COc1cc(N2C(N)=C(C#N)C(c3ccccc3Cl)C3=C2CC(C)(C)CC3=O)cc(OC)c1OC (stereo not drawn) | % | 10

**Q:** Which measured Activity value corresponds to COc1cc(N2C(N)=C(C#N)C(c3ccccc3O)C3=C2CC(C)(C)CC3=O)cc(OC)c1OC (stereo not drawn) ?
**A:** 0

**Q:** Then COc1cc(N2C(N)=C(C#N)C(c3ccc(Cl)cc3Cl)C3=C2CC(C)(C)CC3=O)cc(OC)c1OC (stereo not drawn) ?
**A:** 20

**Q:** Then COc1cc(N2C(N)=C(C#N)C(c3ccc(C)cc3)C3=C2CC(C)(C)CC3=O)cc(OC)c1OC (stereo not drawn) ?
**A:** 30

**Q:** Then COc1cc(N2C(N)=C(C#N)C(c3cccc([N+](=O)[O-])c3)C3=C2CC(C)(C)CC3=O)cc(OC)c1OC (stereo not drawn) ?
**A:** 5

**Q:** Then CCOc1cc(C2C(C#N)=C(N)N(c3cc(OC)c(OC)c(OC)c3)C3=C2C(=O)CC(C)(C)C3)ccc1O (stereo not drawn) ?
**A:** 2

**Q:** Then COc1ccccc1C1C(C#N)=C(N)N(c2cc(OC)c(OC)c(OC)c2)C2=C1C(=O)CC(C)(C)C2 (stereo not drawn) ?
**A:** 30

**Q:** Then `COc1cccc2c1C(=O)c1c(O)c3c(c(O)c1C2=O)C[C@@](O)(C(=O)CO)C[C@@H]3O[C@H]1C[C@H](N)[C@H](O)[C@H](C)O1` ?
**A:** 24
